assay: Cytotoxicity against human ovarian cancer cells assessed as cellular growth at 10 uM after 48 hrs by SRB assay relative to control; format: functional, Cancer cell lines
recordedEndpoint: Activity (%)
Give bare numbers, in %.

Could you tell me Activity for each of these compounds? They are listed below.
1. O=C(CCCn1c(=O)c2sc3ncccc3c2n2nnc(-c3ccccc3)c12)NCCc1c[nH]cn1
2. CN1CCN(CCCn2c(=O)c3sc4ncccc4c3n3nnc(-c4ccccc4)c23)CC1
3. O=C(CCCn1c(=O)c2sc3ccccc3c2n2nnc(-c3ccccc3)c12)NCCc1c[nH]cn1
4. O=C(O)CCCn1c2c(sc3ccccc32)c(=O)n2nnc(-c3ccccc3)c12

Output:
[59, 7, -16, 105]

* * *

assay: Cytotoxicity against human renal cancer cells assessed as cellular growth at 10 uM after 48 hrs by SRB assay relative to control; type: functional, Cancer cell lines
Hi there, I'd appreciate the recorded Activity for every entry that follows.
Answers are plain numbers, in %.

>  <smilesStr>
O=C(CCCn1c(=O)c2sc3ccccc3c2n2nnc(-c3ccccc3)c12)NCCc1c[nH]cn1

>  <reportedMeasurement>
-34

$$$$
>  <smilesStr>
CN1CCN(CCCn2c(=O)c3sc4ncccc4c3n3nnc(-c4ccccc4)c23)CC1

>  <reportedMeasurement>
-14

$$$$
>  <smilesStr>
O=C(CCCn1c(=O)c2sc3ncccc3c2n2nnc(-c3ccccc3)c12)NCCc1c[nH]cn1

>  <reportedMeasurement>
79

$$$$

// next entry
Input: Which Activity value is on record for "O=C(O)CCCn1c2c(sc3ccccc32)c(=O)n2nnc(-c3ccccc3)c12" ?
Output: 75
